tested on: Leishmania braziliensis; assay: Antileishmanial activity against amastigote form of Leishmania braziliensis MHOM/BR/1975/M2904 infected in J774.2 cells after 72 hrs by haemocytometric analysis; format: functional, cell-based, MHOM/BR/75/M2904; conditions: j774.2
ENDPOINT_LABEL: pIC50
A value of pIC50 is the negative decimal logarithm of a concentration given in moles per litre.

QUERY: What does the data say about its pIC50? Entry: MEGLUMINE ANTIMONATE
RESULT: 4.71

---

Form field: selectivity ratio (one value per entry).
experiment: Selectivity index, ratio of IC50 for mouse J774.2 cells to IC50 for amastigote form of Leishmania braziliensis MHOM/BR/1975/M2904 infected in J774.2 cells; assay type: toxicity, cell-based; settings: J774.2 cells, read-out: Ratio IC50
Output spec: single numeric token, no unit.

Cl.c1ccc(CNCCN2CCNCc3cccc(n3)CNCC2)nc1 :: 24.4
Br.NCCCNCCN1CCNCc2cccc(n2)CNCC1 :: 11.5
Cl.c1cncc(CNCCN2CCNCc3cccc(n3)CNCC2)c1 :: 45.4
Br.NCCN1CCNCc2cccc(n2)CNCC1 :: 23.2

QUERY: What does the data say about its selectivity ratio? Entry: "Cl.c1cc2nc(c1)CNCCN(CCNCc1cccc3ccccc13)CCNC2"
RESULT: 22
